Molecular target: T1, eTau-4 peptide
T1 construct: also called synthetic eTau4 polypeptide
T1 peptide: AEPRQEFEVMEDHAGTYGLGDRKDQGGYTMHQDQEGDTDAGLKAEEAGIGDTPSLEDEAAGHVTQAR
Assay: relative binding affinity, method not named (Table 4); sixth column, headed eTau 4
Can you tell me Kd for the items I'm about to list?
Response body: numeric value in nM, unit text excluded.

Req: Entry VH1/Vk2 (antibody, V domains shown, member of the group m7; also called humanized IPN002 variant VH1/Vk2) VH: EVHLVESGGALVKPGGSLRLSCAASGFSFSKYGMSWVRQAPGKGLEWVATISSSGSRTYYPDSVKGRFTISRDNAKNTLYLQMSSLKSEDTAMYYCSISWDGAMDYWGQGTSVTVSS VL: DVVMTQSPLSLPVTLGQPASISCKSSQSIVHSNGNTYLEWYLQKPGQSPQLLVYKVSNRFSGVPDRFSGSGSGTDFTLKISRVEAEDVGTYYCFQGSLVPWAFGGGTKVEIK has what Kd?
Resp: 0.633

Req: Which Kd value belongs to VH3/Vk4 (antibody, V domains shown, member of the group m7; also called humanized IPN002 variant VH3/Vk4) VH: EVQLVESGGALVKPGGSLRLSCAASGFSFSKYGMSWVRQAPGKGLEWVATISSSGSRTYYPDSVKGRFTISRDNAKNTLYLQMNSLRAEDTAMYYCSISWDGAMDYWGQGTTVTVSS VL: DVVMTQSPLSLPVTLGQPASISCKSSQSIVHSNGNTYLEWYLQKPGQSPQLLIYKVSNRFSGVPDRFSGSGSGTDFTLKISRVEAEDVGVYYCFQGSLVPWAFGGGTKVEIK ?
Resp: 0.586

Req: What value of Kd has been reported for the following binder? VH4/Vk1 (antibody, V domains shown, member of the group m7; also called humanized IPN002 variant VH4/Vk1) VH: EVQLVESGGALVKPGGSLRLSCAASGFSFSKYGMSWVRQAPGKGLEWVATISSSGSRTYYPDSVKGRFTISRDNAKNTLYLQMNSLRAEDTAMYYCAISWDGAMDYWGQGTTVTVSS VL: DVLMTQSPLSLPVTLGQPASISCKSSQSIVHSNGNTYLEWYLQKPGQSPQLLVYKVSNRFSGVPDRFSGSGSGTDFTLKISRVEAEDVGTYYCFQGSLVPWAFGGGTKVEIK
Resp: 0.498
